System: RAW-Dual (murine macrophage reporter line)
procedure.summary: IRF reporter (Lucia luciferase) activity fold change vs agonist alone; higher = enhanced IRF activity
condition.notes: modulator concentration 10 µM; agonist: LPS 0.1 ug/mL
parameter.measured: IRF reporter
Give the figure by itself; no unit, no explanation.

What measured IRF reporter is associated with "Cc1c(NC=C2C(=O)NC(=O)NC2=O)c(=O)n(-c2ccccc2)n1C" on RAW-Dual (murine macrophage reporter line)? 1.45

What measured IRF reporter is associated with "CCC1(c2ccccc2)C(=O)N(Cc2ccccc2)C(=O)N(Cc2ccccc2)C1=O" on RAW-Dual (murine macrophage reporter line)? 1.25

What measured IRF reporter is associated with "O=Cc1cn(Cc2cccc3ccccc23)c2ccccc12" on RAW-Dual (murine macrophage reporter line)? 1.25

What measured IRF reporter is associated with COCCN1C(=O)CN(C2CCN(CC(=O)N3CC(C)OC(C)C3)CC2)C1=O (stereo unspecified) on RAW-Dual (murine macrophage reporter line)? 0.979

What measured IRF reporter is associated with "CN1C(=O)C(=Cc2nc3ccccc3c(=O)n2-c2ccccc2)c2ccccc21" on RAW-Dual (murine macrophage reporter line)? 1.32

What measured IRF reporter is associated with COC12CC(COC(=O)c3cncc(Br)c3)CN(C)C1Cc1cn(C)c3cccc2c13 (stereo unspecified) on RAW-Dual (murine macrophage reporter line)? 1.16

What measured IRF reporter is associated with CN1CC(CNC(=O)OCc2ccccc2)CC2c3cccc4c3c(cn4C)CC21 (stereo unspecified) on RAW-Dual (murine macrophage reporter line)? 1.43

What measured IRF reporter is associated with CC(C)(C)NCC(O)c1cc(Cl)c(N)c(Cl)c1 (stereo unspecified) on RAW-Dual (murine macrophage reporter line)? 0.886

What measured IRF reporter is associated with "COc1cc(CNCCc2c[nH]c3ccccc23)cc(OC)c1O" on RAW-Dual (murine macrophage reporter line)? 1.44

What measured IRF reporter is associated with "Cc1c(NN=C2C(=O)NC(=O)NC2=O)c(=O)n(-c2ccccc2)n1C" on RAW-Dual (murine macrophage reporter line)? 1.08

What measured IRF reporter is associated with "C1=C(c2c[nH]c3ccccc23)CCNC1" on RAW-Dual (murine macrophage reporter line)? 1.15
